Values were extracted from ChEMBL document CHEMBL1146198.

System: Streptococcus pneumoniae
protocol: Effect on 0.03 ug/ml DQ113-selected penicillin-resistant Streptococcus pneumoniae 216 mutant after five passages assessed as susceptibility by agar dilution method
Assay type: functional
recordedEndpoint: MIC (µg/mL)
Express it in µg/mL; write the number only.

compound O=C(O)c1cn(C2CC2)c2cc(N3CCNCC3)c(F)cc2c1=O , MIC observed: 4

compound Cc1c(N2C[C@@H](F)[C@@H](C3(N)CC3)C2)c(F)c(N)c2c(=O)c(C(=O)O)cn([C@@H]3C[C@@H]3F)c12 , MIC observed: 0.007

compound COc1c(N2C[C@@H]3CCCN[C@@H]3C2)c(F)cc2c(=O)c(C(=O)O)cn(C3CC3)c12 , MIC observed: 0.25

compound N[C@@H]1CN(c2c(F)cc3c(=O)c(C(=O)O)cn(C4C[C@@H]4F)c3c2Cl)CC12CC2 (single isomer, unassigned) [SITAFLOXACIN ANHYDROUS] , MIC observed: 0.25

---

Test system: Streptococcus pneumoniae
protocol: Effect on 0.5 ug/ml sitafloxacin-selected penicillin-resistant Streptococcus pneumoniae 334 mutant after five passages assessed as susceptibility by agar dilution method
Assay type: functional
Below, each entry is listed alongside its reported MIC.
Express it in mg/L; write the number only.

Use the examples below as a reference point.
# molecule, systemTested, unitString, MIC
measured = [
    ("COc1c(N2C[C@@H]3CCCN[C@@H]3C2)c(F)cc2c(=O)c(C(=O)O)cn(C3CC3)c12 [MOXIFLOXACIN]", "Streptococcus pneumoniae", "mg/L", 4),
    ("O=C(O)c1cn(C2CC2)c2cc(N3CCNCC3)c(F)cc2c1=O [CIPROFLOXACIN]", "Streptococcus pneumoniae", "mg/L", 64),
    ("N[C@@H]1CN(c2c(F)cc3c(=O)c(C(=O)O)cn(C4C[C@@H]4F)c3c2Cl)CC12CC2 (single isomer, unassigned) [SITAFLOXACIN ANHYDROUS]", "Streptococcus pneumoniae", "mg/L", 0.5),
]

Here is the next item to consider.
Short answer on Streptococcus pneumoniae for Cc1c(N2C[C@@H](F)[C@@H](C3(N)CC3)C2)c(F)c(N)c2c(=O)c(C(=O)O)cn([C@@H]3C[C@@H]3F)c12 [DQ-113] , MIC: 0.06

---

Tested on: Streptococcus pneumoniae
protocol: Effect on 0.06 ug/ml DQ113-selected penicillin-resistant Streptococcus pneumoniae 216 mutant after five passages assessed as susceptibility by agar dilution method
Format: functional
recordedEndpoint: MIC (µg/mL)
Express it in µg/mL; write the number only.

# compound, MIC (µg/mL)
measured = [
    ("COc1c(N2C[C@@H]3CCCN[C@@H]3C2)c(F)cc2c(=O)c(C(=O)O)cn(C3CC3)c12 [MOXIFLOXACIN]", 2),
    ("N[C@@H]1CN(c2c(F)cc3c(=O)c(C(=O)O)cn(C4C[C@@H]4F)c3c2Cl)CC12CC2 (single isomer, unassigned) [SITAFLOXACIN ANHYDROUS]", 0.5),
    ("Cc1c(N2C[C@@H](F)[C@@H](C3(N)CC3)C2)c(F)c(N)c2c(=O)c(C(=O)O)cn([C@@H]3C[C@@H]3F)c12 [DQ-113]", 0.06),
]

Here is the next item to consider.
compound O=C(O)c1cn(C2CC2)c2cc(N3CCNCC3)c(F)cc2c1=O [CIPROFLOXACIN] , MIC observed: 16

---

System: Enterococcus
protocol: Susceptibility of vancomycin-resistant Enterococcus species single-step mutant by agar dilution method
Type: functional
recordedEndpoint: MIC (µg/mL)
Express it in µg/mL; write the number only.

Use the examples below as a reference point.
# compound, systemTested, recordedEndpoint, reportedMeasurement
data = [
    ("C[C@H]1COc2c(N3CCN(C)CC3)c(F)cc3c(=O)c(C(=O)O)cn1c23.C[C@H]1COc2c(N3CCN(C)CC3)c(F)cc3c(=O)c(C(=O)O)cn1c23.O [LEVOFLOXACIN]", "Enterococcus", "MIC", 16),
    ("Cc1c(N2C[C@@H](F)[C@@H](C3(N)CC3)C2)c(F)c(N)c2c(=O)c(C(=O)O)cn([C@@H]3C[C@@H]3F)c12 [DQ-113]", "Enterococcus", "MIC", 2),
    ("O=C(O)c1cn(C2CC2)c2cc(N3CCNCC3)c(F)cc2c1=O [CIPROFLOXACIN]", "Enterococcus", "MIC", 16),
]

Short answer on Enterococcus for COc1c(N2C[C@@H]3CCCN[C@@H]3C2)c(F)cc2c(=O)c(C(=O)O)cn(C3CC3)c12 [MOXIFLOXACIN] , MIC: 8

Short answer on Enterococcus for N[C@@H]1CN(c2c(F)cc3c(=O)c(C(=O)O)cn(C4C[C@@H]4F)c3c2Cl)CC12CC2 (single isomer, unassigned) [SITAFLOXACIN ANHYDROUS] , MIC: 4

---

System: Streptococcus pneumoniae
protocol: Effect on 1 ug/ml moxifloxacin-selected penicillin-resistant Streptococcus pneumoniae 334 mutant after five passages assessed as susceptibility by agar dilution method
Type: functional
Below, each entry is listed alongside its reported MIC.
Express it in µg/mL; write the number only.

Use the examples below as a reference point.
# compound, unitString, MIC
data = [
    ("N[C@@H]1CN(c2c(F)cc3c(=O)c(C(=O)O)cn(C4C[C@@H]4F)c3c2Cl)CC12CC2 (single isomer, unassigned) [SITAFLOXACIN ANHYDROUS]", "µg/mL", 0.12),
    ("O=C(O)c1cn(C2CC2)c2cc(N3CCNCC3)c(F)cc2c1=O", "µg/mL", 8),
    ("COc1c(N2C[C@@H]3CCCN[C@@H]3C2)c(F)cc2c(=O)c(C(=O)O)cn(C3CC3)c12", "µg/mL", 0.5),
]

Here is the next item to consider.
Short answer on Streptococcus pneumoniae for Cc1c(N2C[C@@H](F)[C@@H](C3(N)CC3)C2)c(F)c(N)c2c(=O)c(C(=O)O)cn([C@@H]3C[C@@H]3F)c12 , MIC: 0.015

---

Tested on: Streptococcus pneumoniae
protocol: Effect on 32 ug/ml ciprofloxacin-selected penicillin-resistant Streptococcus pneumoniae 216 mutant after five passages assessed as susceptibility by agar dilution method
Type: functional
recordedEndpoint: MIC (µg/mL)
Express it in µg/mL; write the number only.

Use the examples below as a reference point.
# compound, systemTested, unitString, MIC
data = [
    ("N[C@@H]1CN(c2c(F)cc3c(=O)c(C(=O)O)cn(C4C[C@@H]4F)c3c2Cl)CC12CC2 (single isomer, unassigned) [SITAFLOXACIN ANHYDROUS]", "Streptococcus pneumoniae", "µg/mL", 1),
    ("Cc1c(N2C[C@@H](F)[C@@H](C3(N)CC3)C2)c(F)c(N)c2c(=O)c(C(=O)O)cn([C@@H]3C[C@@H]3F)c12", "Streptococcus pneumoniae", "µg/mL", 0.015),
    ("O=C(O)c1cn(C2CC2)c2cc(N3CCNCC3)c(F)cc2c1=O", "Streptococcus pneumoniae", "µg/mL", 32),
]

compound COc1c(N2C[C@@H]3CCCN[C@@H]3C2)c(F)cc2c(=O)c(C(=O)O)cn(C3CC3)c12 , MIC observed: 0.5

---

Below, each entry is listed alongside its reported MIC.
System: Streptococcus pneumoniae
protocol: Effect on 0.06 ug/ml DQ113-selected penicillin-resistant Streptococcus pneumoniae 334 mutant after five passages assessed as susceptibility by agar dilution method
Assay type: functional
Express it in µg/mL; write the number only.

Use the examples below as a reference point.
# compound, systemTested, unitString, MIC
records = [
    ("N[C@@H]1CN(c2c(F)cc3c(=O)c(C(=O)O)cn(C4C[C@@H]4F)c3c2Cl)CC12CC2 (single isomer, unassigned) [SITAFLOXACIN ANHYDROUS]", "Streptococcus pneumoniae", "µg/mL", 0.5),
    ("Cc1c(N2C[C@@H](F)[C@@H](C3(N)CC3)C2)c(F)c(N)c2c(=O)c(C(=O)O)cn([C@@H]3C[C@@H]3F)c12", "Streptococcus pneumoniae", "µg/mL", 0.06),
    ("O=C(O)c1cn(C2CC2)c2cc(N3CCNCC3)c(F)cc2c1=O", "Streptococcus pneumoniae", "µg/mL", 8),
]

Here is the next item to consider.
compound COc1c(N2C[C@@H]3CCCN[C@@H]3C2)c(F)cc2c(=O)c(C(=O)O)cn(C3CC3)c12 , MIC observed: 2

---

System: Streptococcus pneumoniae
protocol: Effect on 16 ug/ml levofloxacin-selected penicillin-resistant Streptococcus pneumoniae 335 mutant after five passages assessed as susceptibility by agar dilution method
Type: functional
Below, each entry is listed alongside its reported log10(MIC).
Could you please treat all values as log10 of MIC in µg/mL?

molecule Cc1c(N2C[C@@H](F)[C@@H](C3(N)CC3)C2)c(F)c(N)c2c(=O)c(C(=O)O)cn([C@@H]3C[C@@H]3F)c12 [DQ-113] , log10(MIC) observed: -0.92

molecule C[C@H]1COc2c(N3CCN(C)CC3)c(F)cc3c(=O)c(C(=O)O)cn1c23.C[C@H]1COc2c(N3CCN(C)CC3)c(F)cc3c(=O)c(C(=O)O)cn1c23.O [LEVOFLOXACIN] , log10(MIC) observed: 1.81

molecule N[C@@H]1CN(c2c(F)cc3c(=O)c(C(=O)O)cn(C4C[C@@H]4F)c3c2Cl)CC12CC2 (single isomer, unassigned) [SITAFLOXACIN ANHYDROUS] , log10(MIC) observed: 0.60

molecule COc1c(N2C[C@@H]3CCCN[C@@H]3C2)c(F)cc2c(=O)c(C(=O)O)cn(C3CC3)c12 [MOXIFLOXACIN] , log10(MIC) observed: 0.90

molecule O=C(O)c1cn(C2CC2)c2cc(N3CCNCC3)c(F)cc2c1=O [CIPROFLOXACIN] , log10(MIC) observed: 2.11
